Biological target: T1, human six-transmembrane epithelial antigen of prostate 2 (STEAP2) (human, UniProt Q8NFT2 1-490)
T1 sequence: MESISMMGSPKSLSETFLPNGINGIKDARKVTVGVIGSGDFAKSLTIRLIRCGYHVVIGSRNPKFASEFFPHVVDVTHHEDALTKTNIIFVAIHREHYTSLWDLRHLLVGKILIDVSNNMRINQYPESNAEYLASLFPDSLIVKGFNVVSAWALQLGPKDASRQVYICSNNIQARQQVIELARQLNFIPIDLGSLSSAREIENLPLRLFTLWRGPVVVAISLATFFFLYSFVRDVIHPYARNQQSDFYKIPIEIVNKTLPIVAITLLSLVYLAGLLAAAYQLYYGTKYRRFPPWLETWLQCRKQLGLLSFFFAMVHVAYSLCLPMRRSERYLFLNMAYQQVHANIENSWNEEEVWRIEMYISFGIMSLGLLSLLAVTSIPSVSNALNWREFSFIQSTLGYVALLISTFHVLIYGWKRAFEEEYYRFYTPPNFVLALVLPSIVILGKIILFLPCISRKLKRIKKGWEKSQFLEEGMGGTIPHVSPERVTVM
Experiment: cell-based or functional assay
experimental-readout: C4-2 cells depletion EC50 (pM)

* BSSTEAP2/CD3-005 (bispecific antibody, IgG4, V domains shown) VH 1: QVQLQQSGPGLVKPSQTLSLTCAISGDSVSSNRAAWNWIRQSPSRGLQWLGRTYYRSKWYNDYAVSLRSRITINPVTSKNQVALHMNSVTPEDTAVYYCARAGIVVVPGPETFYYYDHGLDVWGQGTTVTVSS VH 2: QVQLVESGGGLVHPGRSLRLSCAASGFKFDDYTMHWVRQAPGKGLEWVSDISWNSGSKGYADSVKGRFTISRDNAKDSLYLQMDSLRAADTAFYYCAKDKSGYGHFYYYAMDVWGQGTTVTVSS VL: DIQMTQSPSSLSASVGDRVTITCRASQSIRSYLNWYQQKPGKAPELLIHAASSLQSGVPSRFSGSGSGTDFTLTISSLQPEDFASYYCQQSYSAPPITFGQGTRLEIK | 7.29
